- assay text: yeast display, Sf9 membrane polyspecificity reagent, FACS + sequencing; frameworks hold sequencing errors
observable: polyreactivity (PSR sort gate)

The examples below pair each entry with its known result.
- primary sequence: "QVQLVESGGGLVQAGGSLRLSCAASGSIFGWYVMGWYRQAPGKERELVAAISSVGSTYYADSVKGRFTISRDNAKNTVYLQMNSLKPEDTAVYYCAKLRYPYLFWDDSEYWGQGTQVTVSS"
  polyreactivity (PSR sort gate): "low polyreactivity"
- primary sequence: "QVQLVESGGGLVQAGRSLRLSCSASGFSFSFYSMGWYRQAPGKERELVAAISQSGGSTYYADSVKGRFIISLDNAKHTVYLQKNSLKPEDTAVYYCNRGLRRHQSDDYWGQGTQVTVSS"
  polyreactivity (PSR sort gate): "high polyreactivity"
- primary sequence: "QVQLVESGGGLVQAGGSLRLSCAASGSIFWGNAMGWYRQAPGKERELVAAIDWSGGSTYYADSVKGRFTISRDNAKNTVYLQMNSLKPEDTAVYYCAASGRYDYDYWGQGTQVTVSS"
  polyreactivity (PSR sort gate): "low polyreactivity"
- primary sequence: "QVQLVESGGGLVQAGGSLRLSCAASGRIFNYYAMRWYRQAPGKETELVAAITSSGGSTYYADSVKGRFTISRDNAKNTVYLQMNSLKPEDTAVYYCAAVSTATIRGGYWGQGTQVTVSS"
  polyreactivity (PSR sort gate): "high polyreactivity"

Prompt line: Fill in the blank: the reported polyreactivity (PSR sort gate) of QVQLVESGGGLVQAGGSLRLSCAASGSIFYKNAMGWYRQAPGKERELVAVISWSGGSTSYADSVKGRFTISRDNAKNTVYLQMNSLKPEDTAVYYCAKEYFTDYLYEYDYWGQGTQVTVSS is ____.
Response line: low polyreactivity

----------
- assay text: yeast display, Sf9 membrane polyspecificity reagent, FACS + sequencing; frameworks hold sequencing errors
observable: polyreactivity (PSR sort gate)

The examples below pair each entry with its known result.
- primary sequence: "QVQLVESGGGLVQAGGSLRLSCAASGRTFNFYAMGWYRQAPGKERELVATISGGVSTYYADSVKGRFTISRDNAKNTVYLQMNSLKPEDTAVYYCAKDSGYPQWDLDYWGQGTQVTVSS"
  polyreactivity (PSR sort gate): "high polyreactivity"
- primary sequence: "QVQLVESGGGLVQAGGSLRLSCAASGSIFAINAMGWYRQAPGKERELVAGITSGGSTYYADSVKGRFTISRDNAKNTVYLQMNSLKPEDTAVYYCAVQVVRSWLVTYYYWGQGTQVTVSS"
  polyreactivity (PSR sort gate): "high polyreactivity"
- primary sequence: "QVQLVESGGGLVQAGGSLRLSSAASGITFGAYAMGWYRPAPGKERELVAAIRRSDGSTYYADSVKGRFTISRDNAKNTVDLQINSLKPEETAVYYCAADEGLYQGYEYDYWGHGTQVTVSS"
  polyreactivity (PSR sort gate): "high polyreactivity"
- primary sequence: "QVQLVESRGGLVQAGGSLRLSCAACGLIFTRNAMGWYSAAPGKERELVAAISRSGGTTYYADSVKGRFTISRDNAKNTVYLQMNSLKPEDTAVYYCAAGSWWVIGGSVSYWYNYWGQGTQVTVSS"
  polyreactivity (PSR sort gate): "high polyreactivity"
- primary sequence: "QVQLVESGGGLVQAGGSLRLSCAASGIIFTPNAMGWSRQAPGKERELVAAINYGGDTTYYADSVKGRFTISRDNAKNTVYFQMNSLKPADTAVYYCATDGTTPTPRDAFVRFDHWGQGTQVTVSS"
  polyreactivity (PSR sort gate): "low polyreactivity"

Prompt line: Fill in the blank: the reported polyreactivity (PSR sort gate) of QVQLQESCGGLVQAGGSQRLSCAASAYIFYFQYMGWYRQAPGKEREFVAAISDGANTNYADSVKGRFTISRDNAKNTEYLQMNSLKPEDTAVYYCAVYADENFYYIYWGQGTEVTVSS is ____.
Response line: low polyreactivity

Prompt line: Please do the same for QVQLQESGGGLVQAGGSLRLSCAASGPISRRSTMGWYRQAPGKERELVTAITRGTNTNYADSVKGRFTISRDNAKNTESLQMNSLKPEDTAVYYGAAYGVLKPSRGDAVFHRYWGQGTQVTVSS as well.
Response line: low polyreactivity

----------
- assay text: yeast display, Sf9 membrane polyspecificity reagent, FACS + sequencing; frameworks hold sequencing errors
observable: polyreactivity (PSR sort gate)

The examples below pair each entry with its known result.
- primary sequence: "QVQLVESGGGLVQAGGSLRLSCAASGSTFYANAMGWYRQAPGKERELVAAITRSGAGTYYADSVKGRFTISRDNAKNTVYLQMNSLKPEDTAVYYCNAGSSFWVSRIGYDYWGQGTQVTVSS"
  observable: "polyreactivity (PSR sort gate)"
  result: "high polyreactivity"
- primary sequence: "QVQLVESGGGLVQAGGSLRLSCAASGSIFGKNAMGWYRQARGKERELVAAITWSGGSTYYADSVKGRFTISRENAKNTVYLQMNSLKPEDTAVYYCNAVRVRVTSHRIRQLDFGYWGQGTQVTVSS"
  observable: "polyreactivity (PSR sort gate)"
  result: "low polyreactivity"
- primary sequence: "QVQLVESGGGLVQAGGSLRLSCAASGFIIGVYAMGWYRQAPGKEREFVAAISLTGGSTSYADSVKGLFTISRDNAKNTVYLQMNSLKREDTAVYYCAADAWFWVRWGENYWGQGTQVTVSS"
  observable: "polyreactivity (PSR sort gate)"
  result: "low polyreactivity"
- primary sequence: "QVQLVESGGGLVPAGGSRRLSCAASGSIFTSYAMGWYRQAPGKERELVAAISSSGGSTYYADSVSGRFTISRDNAKQTVYFQMNSLKPEDTAVYYCAARYKGVYAPHYYWGQGTQVTVSS"
  observable: "polyreactivity (PSR sort gate)"
  result: "high polyreactivity"
- primary sequence: "QVQLQESGGGLVQAGGTITLGYDMGWYRQAPGKEREFVAGIDTGAITYYADSVKGRFTNSRDNAKNTVYLQMNSLKPEDTAVYYCAAILTHTYAHSYWGQGTQVTVSS"
  observable: "polyreactivity (PSR sort gate)"
  result: "high polyreactivity"
- primary sequence: "QVQLVESGGGLVQAGGSLRLSCAASGRIFVGDAMGWYRQAPGTERELVAAISRDGDNTFYADSVKGRFTISRDNAKNTVYLQMNSLKPEDTAVYYCAVDYWVWYGSAYAYDYYWGQGTQVTVSS"
  observable: "polyreactivity (PSR sort gate)"
  result: "low polyreactivity"
- primary sequence: "QVQLVESGGGLVQAGGSLRLSCAASGRIFPFNAMGWYRQAPGKERELVAAISSSGGSTYYADSVKGRFTISRDNAKNTVYLQMNSLKPEDTAVYSCAATRNSDGMGYWGQGTEVTVSS"
  observable: "polyreactivity (PSR sort gate)"
  result: "low polyreactivity"
- primary sequence: "QVQLVESGGGLVQAGRSLRLSCAASGLTFKWYAMGWYRQAPGKERELVAAISRDGSTYYADSVKGRFTISRDNAKNTVYLQMNSLKPEDTAVYDCAADIWPSSLLADEYDYWGQGTQVTVSS"
  observable: "polyreactivity (PSR sort gate)"
  result: "high polyreactivity"

Prompt line: Fill in the blank: the reported polyreactivity (PSR sort gate) of QVQLVESGGGLVQAGGSLRLSCAASGSTFRVNVMGWYRQAPGKERELVAAITTSGGSTYYADSVKGRFTISRDNAKNTVYLQMNSLKPEDTAVYYCAAEGGFSPQPYNLYYATPREDYWGQGTQVTVSS is ____.
Response line: low polyreactivity

Prompt line: Please do the same for QVQLVESGGGLVQAGGSLRFSCAASGLTFNHNAMGWYRQAPGKERELVAAISRRGGSTYYADSVKGRFTISRDNAKNTVYVQMNSLKPEDTAVYYCNKDFPTLYSRGRYIYWGQGTQVTVSS as well.
Response line: high polyreactivity

Prompt line: Please do the same for QVQLEESGGGLVQAGGSLRLSCAASGRTFIYYAMGWYRQATGKEREFVAAITKSGGTTYYADSVKGRFTISRHNAKNTVYLQMNSLKPEDTAVYYCAKTTRRGFALYDYWGQGTQVTVSS as well.
Response line: high polyreactivity

----------
- assay text: yeast display, Sf9 membrane polyspecificity reagent, FACS + sequencing; frameworks hold sequencing errors
observable: polyreactivity (PSR sort gate)

- primary sequence: "QVQLLESGVGLVQAGGSLRLSCAASGFTFGYYAMGWYRQAPGKETELVAAISSSDGSTYYADSVKGRFTISRDNAKNTVYLQMNSLKPEDTAVYYCAAEYYSAVYIDEYWYDYWGQGTQVTVSS"
  polyreactivity (PSR sort gate): "high polyreactivity"
- primary sequence: "QVQLVESGGGLVQAGGSLRLSCAASGLIFGYNAMGWYRQAPGKEREFVAGISVIDGRTYYADSVKGRFTISRDNAKNTVYLQMNSLKPEDTAVYYCAADRWYKYYFLTYGYWGQGTQVTVSS"
  polyreactivity (PSR sort gate): "low polyreactivity"
- primary sequence: "QVQLVESGGGLVQAGGSLRLSCAASGSTFNVYGMGCYRQAPGKERELVAAINRDGITYADSVKGRFTISRDNAKNTVYLQMNSLKPEDTAVYYCAAGYSPYKGSAGYYWGQGTQVTVSS"
  polyreactivity (PSR sort gate): "low polyreactivity"
- primary sequence: "QVQLVESGGGLVQAGGSLRLSCAASGRTFSAYAMGWYRQAPGKERELVAAISRSGGRTYYADSVKGRFTISRDNAKNTVYLEMNSLKPEDTAVYYCNARNLRDNQCTYDYWGQGTQVTVSS"
  polyreactivity (PSR sort gate): "high polyreactivity"
- primary sequence: "QVQLVESGGGLVQAGGSLRLSCAASGFTFKNNAMGWYRQAPGKEREFVASISSGSTNYADSVKGRFTISRDNAKYTVYLQMNSLKPEDTEVYYCIRAPYRYSEPDYRSDFWGQGTQVTVSS"
  polyreactivity (PSR sort gate): "low polyreactivity"
- primary sequence: "QVQLVESGGGLVQAGGSLRLSCAASGNTFTYYAMGWYRQAPGKERELVAAINIDVASTYYADSVKGRFTISRDIAKNTVYLQMNSLKPEDTAVYYCAAEVGVYPVYWYDYWGQGTQVTVSS"
  polyreactivity (PSR sort gate): "low polyreactivity"

Prompt line: Fill in the blank: the reported polyreactivity (PSR sort gate) of QVQLVESGGGLVQAGGSLRLSCAASGSTFYRNAMGWYRQAPGKEREFVATINRGGSTYYADSVKGRFTISRDNAKNTVYLQMNSLKPEDTAVYYCNAKYKQRHGYSAVTSYATYDYWGQGTQVTVSS is ____.
Response line: high polyreactivity

Prompt line: Please do the same for QVQLVESGGGLVQAGGSLRLSCAASGIIFLYNDMGGYRHAPGKEREFVATISRSGGSTYYADSVKGRFTISRDNAKNTVYLQMNSLKPEDTAVYYCAADEDSGYGYWGQGTQVTVSS as well.
Response line: low polyreactivity

Prompt line: Please do the same for QVQLEESGGGLVQAGGSLRLSCAASGRIFMTYAMGWYRQAPGKERELVAAITRRGGTTYYADSEKARFTISRDNAKNTVYLQMNCLKPEDTAVYYCAPAKPRVISQNIIYDYWGQGTQVTVSS as well.
Response line: high polyreactivity

Prompt line: Please do the same for QVQLVESGGGLLQAGGSLRLSCAASGFTISYNVMGWYRQAPGKERELVAAITYSGGSTYYADSVKGRFTISRDNAKNTVYLQMNSLKPEDTAVYYCAAENGMPMDYWGQGTQVTVSS as well.
Response line: low polyreactivity

Prompt line: Please do the same for QVQLVESGGGLVQAGGSLRLSCAASGRIFSYNTMGWYRQAPGKERELVAAISGGGTTYYADSVKGRFTISRDNAKNTVYLQMNSLKPEDTAVYYCNAEYYGYSWRRTKYGYWGQGTQVTVSS as well.
Response line: high polyreactivity
